FYI, the data here is from patent US10793576B2.

Catalogue of IC50 readings, one per entry.
Molecular target: BTK kinase (Homo sapiens (Human))
Sequence (Q06187 whole entry): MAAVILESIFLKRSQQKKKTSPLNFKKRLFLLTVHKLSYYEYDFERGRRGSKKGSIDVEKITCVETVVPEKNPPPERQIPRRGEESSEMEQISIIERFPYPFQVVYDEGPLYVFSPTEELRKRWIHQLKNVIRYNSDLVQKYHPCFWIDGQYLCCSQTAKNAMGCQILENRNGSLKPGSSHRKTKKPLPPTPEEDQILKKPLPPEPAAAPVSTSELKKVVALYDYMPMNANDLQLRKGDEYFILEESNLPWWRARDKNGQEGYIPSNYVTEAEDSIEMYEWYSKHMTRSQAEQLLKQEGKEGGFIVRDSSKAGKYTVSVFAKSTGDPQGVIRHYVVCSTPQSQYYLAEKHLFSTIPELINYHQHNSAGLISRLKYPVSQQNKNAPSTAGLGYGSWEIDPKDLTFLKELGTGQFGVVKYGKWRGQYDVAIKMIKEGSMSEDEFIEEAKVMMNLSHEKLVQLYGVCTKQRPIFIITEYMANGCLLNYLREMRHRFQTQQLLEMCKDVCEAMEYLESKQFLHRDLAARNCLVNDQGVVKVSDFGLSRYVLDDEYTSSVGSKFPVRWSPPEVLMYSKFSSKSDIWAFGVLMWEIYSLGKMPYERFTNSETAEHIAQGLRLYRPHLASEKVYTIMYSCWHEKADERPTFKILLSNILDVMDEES
// note: answer is a bare numeric in nM

Some compounds with recorded IC50:
{"columns": ["COMPOUND", "EXPERIMENTAL_RESULT"],
 "data": [
  ["CC#CC(=O)N1C2CCC1(c1nc(-c3ccc(Oc4ccccc4)cc3)c3c(N)nccn13)COC2 (stereo not drawn)", 18],
  ["C=CC(=O)N1C(c2nc(-c3ccc(C(=O)Nc4ccccn4)cc3)c3c(N)nccn23)[C@@H]2C[C@H]1CN2C(=O)OC(C)(C)C (stereo partly drawn)", 4.4]
]}

Now, please, on to the next compound.
## Input Item C=CC(=O)N1[C@H]2CC[C@@H]1[C@@H](c1nc(-c3ccc(C(=O)Nc4ccccn4)cc3)c3c(N)nccn13)C2 with BTK kinase (Homo sapiens (Human)) - IC50?
## Output 5.6
